Let's look at some compounds and their measured TGI.
- System: ACHN renal
- ASSAY DETAILS: NCI tumour cell line growth inhibition, 48 h

See these solved cases before continuing.
> print(dat)
                                   compound  readout  measured.result
1  COc1ccc(C2SC(C)C(=O)N2NC(=O)C(O)c2ccccc2)cc1OC (configuration not stated)      TGI         > 100 µM
2  OC(CCNCc1ccccc1)c1ccc2ccccc2c1 (configuration not stated)      TGI          41.5 µM
3  COc1cc([C@H]2OC[C@H]3[C@@H]2CO[C@@H]3c2cc(OC)c3c(c2)OCO3)cc(OC)c1OC      TGI         > 100 µM
4  CCOC(=O)NC(=O)c1cn(CCN2CCN(c3ncnc4nc[nH]c34)CC2)c(=O)[nH]c1=O      TGI         > 100 µM
5  CCN(CC)c1ccc2cc(C(=O)Nc3cccc4ccccc34)c(=N)oc2c1      TGI         > 100 µM

Query string: Request the reported TGI associated with O=C1c2ccccc2-c2c1c1ccccc1c(=O)n2CCN1CCOCC1
Result string: 92 µM

Query string: Request the reported TGI associated with C=C1c2[nH]c3c([N+](=O)[O-])c(OC)ccc3c2CCN1C(C)=O
Result string: > 100 µM

----------
Let's look at some compounds and their measured TGI.
- Test system: DLD-1 colon
- ASSAY DETAILS: NCI tumour cell line growth inhibition, 48 h

See these solved cases before continuing.
> print(dat)
                                   compound  measured.result
1  O=c1c2ccccc2nc(-c2ccccc2)n1NC1OC(CO)C(O)C(O)C1O (stereo not drawn)         > 100 µM
2  COc1ccc(C(C#N)Cc2cc(OC)c(OC)c(OC)c2)cc1 (stereo not drawn)         > 100 µM

Query string: Request the reported TGI associated with CC1(c2ccc[n+](Cc3ccccc3)c2)OCCO1
Result string: > 100 µM

----------
- System: KM20L2 colon
- ASSAY DETAILS: NCI tumour cell line growth inhibition, 48 h
READOUT: TGI

> print(dat)
                                   molecule  measured.result
1  COC(=O)C1=CC2C(=O)OC1CC2C#N (stereo not given)         > 100 µM
2           CN(/N=C/c1cccc2cccnc12)c1ccccc1         > 100 µM
3  COc1ccc2ccccc2c1C1OC(=O)c2ccccc21 (stereo not given)         > 100 µM

Query string: Request the reported TGI associated with CCOC(=O)C(=Cc1cccnc1C)C(=O)OCC
Result string: 10.7 µM

Query string: Request the reported TGI associated with O=c1c2ccccc2nc(-c2ccccc2)n1NC1OC(CO)C(O)C(O)C1O (stereo not given)
Result string: > 100 µM

Query string: Request the reported TGI associated with CCOC(=O)Cc1cc(OC)c(OC)cc1/C(Cl)=C(\C=O)c1ccc(OC)c(OC)c1
Result string: 35.7 µM

Query string: Request the reported TGI associated with N#CC(c1nc2ccccc2nc1Cl)S(=O)(=O)c1ccccc1 (stereo not given)
Result string: > 100 µM

Query string: Request the reported TGI associated with CCOC(=O)NC(=O)c1cn(CCCCCCOC(=O)NCCCCCCNC(=O)OCCCCCCn2cc(C(=O)NC(=O)OCC)c(=O)[nH]c2=O)c(=O)[nH]c1=O
Result string: > 100 µM

Query string: Request the reported TGI associated with Cc1ccccc1NC(=O)C(=O)CC(=O)c1c(C)n([O-])c2ccccc2[n+]1=O
Result string: > 100 µM

Query string: Request the reported TGI associated with COc1c(Cl)cc(NC(=S)C#N)cc1Cl
Result string: 54.4 µM

Attribution: PubChem BioAssay (NCI)
